All figures here come from ChEMBL document CHEMBL1130763.

Organism: Homo sapiens
Experiment: In vitro inhibition of platelet aggregation by measuring its effect on the ADP-stimulated aggregation of human platelets
Assay type: functional
Kindly state IC50 for each of the entries shown.
One number for each entry, in nM.

Below, 3 molecules whose answers are already recorded.
molecule	value.type	assay.result
CCCCS(=O)(=O)NC(CCCc1ccc2c(c1)c(=O)n(CCC1CCNCC1)c(=O)n2Cc1ccncc1)C(=O)O (centres undefined)	IC50	100
CCCCS(=O)(=O)NC(CC#Cc1ccc2c(c1)c(=O)n(CCC1CCNCC1)c(=O)n2C)C(=O)O (centres undefined)	IC50	67
CCCCS(=O)(=O)NC(CNC(=O)c1ccc2[nH]c(=O)n(CCC3CCNCC3)c(=O)c2c1)C(=O)O (centres undefined)	IC50	210

Requested field: IC50. Item: CCCCS(=O)(=O)NC(CC#Cc1ccc2c(c1)c(=O)n(CCC1CCNCC1)c(=O)n2Cc1ccccc1)C(=O)O (centres undefined)
61
